- Test system: UACC-257 melanoma
- protocol: NCI-60 one-dose screen, 48 h (100 = growth as untreated, 0 = no growth, -100 = all killed)
- recordedConditions: 10 µM unless noted
About 83,000 compounds went through this panel and 20% of them were active in at least one assay; those are over-represented in the sample as a whole.
recordedEndpoint: growth (%)
Give the value in % but do not write % after it.

Previously resolved entries follow.
compound: C(CCCSC1=NCCN1)CCSC1=NCCN1
unitText: %
growth: 98.5
--
compound: CCOC(=O)C#Cc1c(CC(=O)OCC)nnn1[C@H]1O[C@@H](CO)[C@@H]2OC(C)(C)O[C@@H]21
unitText: %
growth: 62.8
--
compound: O=C1NC(=O)C(=Cc2cc(-c3ccc(Cl)cc3)n(-c3ccccc3)n2)C(=O)N1
unitText: %
growth: 101
--
compound: O=c1c(Cc2ccc(F)cc2)cc(-c2ccccc2)nn1C/C(=N/O)c1ccccc1
unitText: %
growth: 53.8
--
compound: O=C1C2C(c3cccs3)C=C(c3ccc(Cl)cc3)N2C(=S)N1c1ccccc1 (stereo not given)
unitText: %
growth: 105
--
compound: C/C(=C(\c1ccc(OCCCN(C)C)cc1)c1ccc(OC(=O)Cc2ccccc2)cc1)c1ccc(Cl)cc1
unitText: %
growth: 91.5
--
compound: Cc1cc2nc(C(Cl)Cl)nc(-c3ccccc3)n2n1
unitText: %
growth: 93
--
compound: COc1ccc(/C(C)=C(\c2ccc(Cl)cc2)c2ccc(OCCCN(C)C)cc2)cc1
unitText: %
growth: 89.1

Consider the compound shown here: Cc1nn(C)c2ncnc(Nc3ccccc3Br)c12 What is its recorded growth?
105

Return reported growth; argument: O=C(Cn1cc(CSc2nc3ccccc3o2)nn1)Nc1ccc([N+](=O)[O-])cc1
110
